Tested on: COLO 205 colon
Assay: NCI-60 one-dose screen, 48 h (100 = growth as untreated, 0 = no growth, -100 = all killed)
Conditions: 10 µM unless noted
The panel holds about 83,000 compounds, 20% with a hit somewhere; the sample as a whole holds those more often. Activity calls are given as the source filed them. How the source made its calls: active means growth percent below 10; inactive means the rest.
attribute.measured: growth

# example entries with known answers
| compound | growth |
| --- | --- |
| COc1ccc(-c2nc(-c3nc4ccc(F)cc4[nH]3)cc3c2[nH]c2ccccc23)cc1 | 44.1% (inactive) |
| O=C(Nc1ccc(I)cc1)c1cccc([N+](=O)[O-])c1O | 7.78% (active) |
| O=S(=O)(NCCCNc1cc(-c2cn(-c3ccccc3)nc2-c2cccc(O)c2)ccn1)c1ccc(Cl)cc1 | -68.5% (active) |
| O=C1CCC(=O)N1Cc1ccccc1 | 111% (inactive) |
| CC[C@H](C)[C@@H]1NC(=O)[C@H]([C@@H](C)O)NC(=O)C(Cc2ccccc2)NC(=O)[C@@H]2CCCN2C(=O)C(C(C)C)NC(=O)C(Cc2ccccc2)NC(=O)CNC(=O)[C@@H]2CCCN2C1=O (stereo partly specified) | 79.7% (inactive) |

Continue with the compound presented below.
Which measured growth value corresponds to "COc1cc2oc(-c3cccc(NC(=O)Nc4ccc5c(c4)OCO5)c3)cc(=O)c2c(OC)c1OC" ?
75.8% (inactive)

---

Test system: OVCAR-8 ovarian
Assay: NCI-60 one-dose screen, 48 h (100 = growth as untreated, 0 = no growth, -100 = all killed)
Conditions: 10 µM unless noted
This is part of a sample that, as a whole, favours compounds with a hit. Of some 83,000 tested, about 20% had one in any assay.
The molecules listed here are annotated with their growth.
Provide the reading as a plain figure in %.

Before answering, review these 4 worked examples.
| molecule | growth (%) |
| --- | --- |
| CCN1C(=O)N[C@H]2[C@@H]3NC(=O)c4ccc(Cl)n4[C@@H]3C[C@]21O | 1.27 |
| COC(=O)CCCCCCN=Cc1c(O)c(O)c(C(C)C)c2cc(C)c(-c3c(C)cc4c(C(C)C)c(O)c(O)c(C=NCCCCCCC(=O)OC)c4c3O)c(O)c12 | 18.6 |
| COc1ccc(C2CC(c3cccs3)=NN2c2ccc(S(=O)(=O)NC(=O)NCc3cccc(OC)c3)cc2)cc1 (centres undefined) | 107 |
| Cc1nc(Nc2cccnc2)sc1C(=O)/C=C/c1ccc(F)cc1 | 21.8 |

Name the reported growth value associated with the molecule "O=[N+]([O-])c1ccc(S(=O)(=O)N2CCN(c3ccnc4cc(Cl)ccc34)CC2)c([N+](=O)[O-])c1"
97.1

Tell me the measured growth of COC1=CC(c2ccc[nH]2)=N/C1=C\c1[nH]c(C)c(C(=O)CCC(=O)Oc2ccc3c(c2)CCC2C3CC[C@]3(C)[C@@H](O)CC[C@@H]23)c1C (some centres undefined) , please.
-3.79

Quick check: growth of "Cc1sc2nc(CSc3nnc(-c4ccco4)o3)[nH]c(=O)c2c1C" ?
104

GET /values?readout=growth&item= "CCO/C=N/NC(=O)c1ccncc1"
108

---

Tested on: NCI-H23 lung
Assay: NCI-60 one-dose screen, 48 h (100 = growth as untreated, 0 = no growth, -100 = all killed)
Settings: 10 µM unless noted
About 83,000 compounds went through this panel and 20% of them were active in at least one assay; those are over-represented in the sample as a whole.
attribute.measured: growth (%)
Field: numeric (%). Do not append units.

Sample records with growth:
| molecule | growth [%] |
| --- | --- |
| NC(=S)NN=C1CCCCC1 | 89.5 |
| CC(C)(C)c1cc(-c2nc3ccc(N4CCN(CCO)CC4)cc3[nH]2)cc(C(C)(C)C)c1O | 96.3 |
| CCN1C(=O)N(CC)C2C1NN=c1s/c(=C\c3ccccn3)c(=O)n12 (stereo not given) | 34.5 |
| CC1=NN2C(=NC3=C(CCC/C3=C\c3ccc(Cl)cc3)C2c2ccc(Cl)cc2)S1 (stereo not given) | 97.8 |
| Nc1c(C(=O)c2ccc(F)cc2)sc2nc3c(cc12)CCCC3 | 77.9 |
| Nc1cccc2c1CN(C1CCC(=O)NC1=O)C2=O (stereo not given) | 99.4 |
| O=S(=O)(NCCCNc1cc(-c2cn(-c3ccccc3)nc2-c2cccc(O)c2)ccn1)c1ccc(Br)cc1 | 25.2 |
| CCOC(=O)C(Cc1ccccc1)n1c(O)c(C=Nc2ccc(C(=O)OCCN(CC)CC)cc2)sc1=O (stereo not given) | 102 |
| O=C1CCCCN1CCCCC#Cc1ccccc1C#Cc1ccccn1 | 101 |

Short answer please: growth, NCI-H23 lung, entry N#CC1=C(N)OC2=C(C(=O)CCC2)C1c1ccco1 (stereo not given)
97.1

---

System: M14 melanoma
Experiment: NCI-60 one-dose screen, 48 h (100 = growth as untreated, 0 = no growth, -100 = all killed)
Conditions: 10 µM unless noted
About 83,000 compounds went through this panel and 20% of them were active in at least one assay; those are over-represented in the sample as a whole.
attribute.measured: growth (%)
Expressed in %, but write only the number.

Reference set, count: 8
| compound | attribute.measured | test.value |
| --- | --- | --- |
| O=[N+]([O-])c1cc(S(=O)(=O)OCC2CO2)ccc1Cl (stereo unspecified) | growth | 95.1 |
| COc1cc(-c2n[nH]nc2-c2ccc3c(c2)OCCO3)cc(OC)c1OC | growth | 16.5 |
| COc1ccc(/C=C2\C(=O)N(C(=O)c3csc(NC(C)=O)n3)N=C2C)cc1 | growth | 98.7 |
| CCn1cc(C(=O)O)c(=O)c2cc(F)c(N3CCN(S(=O)(=O)c4c(C)cc(C)cc4C)CC3)cc21 | growth | 75.6 |
| Cc1cccc(-n2c(C)nc3ccc(NC(=O)NCCCl)cc3c2=O)c1 | growth | 98.7 |
| COc1ccc(NC(=O)CSc2nc3ccccc3c(=O)n2-c2ccccc2C(F)(F)F)c(OC)c1OC | growth | 97.5 |
| CCN(C(=O)c1cc2ncccc2[nH]1)[C@H]1CCC[C@@H](NCc2cccc(F)c2)C1 | growth | 113 |
| COc1cccc(-c2nc3sccn3c2-c2ccnc(NCCCNS(=O)(=O)c3ccc(F)cc3)n2)c1 | growth | 18.1 |

Consider the compound shown here: "O=S(=O)(c1ccccc1)n1ccc(-c2ccc3c(c2)CCO3)n1" What is its recorded growth?
101

What does the record list as growth for Cc1cc(Cl)ccc1OC(C)C(=O)Nc1nnc(C2CC2)s1 (stereo unspecified) ?
113

Entry CCC1CCc2nc3sc(C(=O)Nc4ccccc4C)c(N)c3cc2C1 (stereo unspecified) : reported growth = ?
19.8

Value lookup for growth; key = CCN1C(=O)N(CC)C2C1NN=c1s/c(=C\c3ccccn3)c(=O)n12 (stereo unspecified)
13

---

System: SK-MEL-28 melanoma
Experiment: NCI-60 one-dose screen, 48 h (100 = growth as untreated, 0 = no growth, -100 = all killed)
Conditions: 10 µM unless noted
Compounds without any hit were thinned out: in the full panel of roughly 83,000, 20% have a hit.
// NB: equality with 50% counts as no; only growth strictly below is yes

| molecule | class |
| --- | --- |
| COc1ccc(/C=C2\C(=O)N(C(=O)c3csc(NC(C)=O)n3)N=C2C)cc1 | no |

A record lists "CC(=O)/C=C/c1cc2cc(Cl)ccc2[nH]c1=O" . Is its growth below 50%?
no

Lab log: compare recorded growth with 50%; is it strictly lower for "CN1CCN(c2ccc3cc(-c4nc5ccccc5[nH]4)c(=O)oc3c2)CC1" ?
no

Report whether reported growth is lower than 50% (strictly) for "COc1ccc(NC(=S)/N=c2\oc3c(OC)cccc3cc2-c2cc3ccccc3[nH]2)cc1"
no

Dear reviewer, please state whether "COc1cc(/C=C/C(=O)c2ccccc2O)ccc1OCCCOc1cc2c(cc1OC)C(=O)N1CCC[C@H]1C=N2" has growth strictly beneath 50%.
yes

Please state whether growth is below 50% for "COc1ccc(/C=C2\Oc3cc(OCCN4CCCC4)ccc3C2=O)c(OC)c1"
no

Answer whether the molecule "C=C1C(=O)O[C@H]2[C@H]1CC/C(Cn1cc(-c3ccccc3C(F)(F)F)nn1)=C\CC[C@@]1(C)O[C@@H]21" has growth strictly less than 50%
yes

Please check: growth for "COc1ccc([N+](=O)[O-])c(/C=C/C(=O)c2ccccn2)c1" , strictly under 50% or not?
no

---

Tested on: BT-549 breast
Assay: NCI-60 one-dose screen, 48 h
Details: 10 µM unless noted
Compounds without any hit were thinned out: in the full panel of roughly 83,000, 20% have a hit. Active and inactive are the calls of the source. Rule for the calls: active = growth percent below 10; inactive = the rest.
Pick one: 1 (yes) = active, 0 (no) = inactive

Observe how each entry below is paired with its result.
| compound | class |
| --- | --- |
| COc1cccc(/C=C/C(=O)c2sc(Nc3ccc(O)cc3)nc2C)c1 | 0 (no) |
| COc1cc(NCCN=C(N)NC(N)=NC(C)C)c2ncccc2c1 | 0 (no) |
| COc1cc(/C=C\c2cc(OC)c(OC)c(OC)c2)cc(N/C=C\C(=O)c2c[nH]c3ccccc23)c1OC | 0 (no) |
| Oc1ccc(N=Cc2ccccc2)cc1 | 0 (no) |
| COc1cccc(C2CC(=O)Nc3c2c(C)nn3-c2nc3ccccc3[nH]2)c1OC (stereo not given) | 0 (no) |
| CC(C)(C)c1cn2cccc(C(=O)N3CCN(CC(=O)Nc4ccc(Cl)cc4C(=O)c4ccccc4Cl)CC3)c2n1 | 1 (yes) |
| O=C(CNC1CCCCC1)Nc1ccc(-c2nc3ccccc3s2)cc1 | 0 (no) |
| COc1ccc(-c2nc3sccn3c2-c2ccnc(NCCCNS(=O)(=O)c3ccc(C)cc3)n2)cc1 | 0 (no) |

Field: outcome | Entry: "Cc1nc2scc(-c3ccccc3)n2c(=O)c1CCO"
0 (no)

Test call, this compound: "O=C(O)c1ccc(-n2c(=O)c3ccccc3c3ccccc3c2=O)cc1"
0 (no)
